Taken from PubChem BioAssay AID179.

# System: CEM cells HIV-1 protection, formazan growth assay
# EXPERIMENTAL DETAILS: NCI AIDS Antiviral Assay
# CONDITION SUMMARY: measured here: growth of uninfected CEM cells
# Procedure: The ability of compounds to protect human CEM cells from HIV-1 infection is measured as a screen for new compounds capable of inhibiting the HIV virus. Five concentrations of drug were tested on uninfected and infected cells and cell growth was measured using a soluble formazan assay. […] Compounds that provided at least 50% protection were retested. Compounds that provided at least 50% protection on retest were listed as moderately active. […]
pIC50: −log10 of the molar value.

MOLECULE | pIC50
Nc1nc2ncn(CC(O)CO)c2c(=O)[nH]1 (stereo unspecified) | < 4.22
CCOC(=O)CSc1[nH]c2nc(C)nc(Cl)c2c1C#N | < 4.00
COC[n+]1cc2cc(OC)c(OC)cc2c2ccc3cc(OC)c(OC)cc3c21 | < 4.50
CC(=O)N1N(c2ccc([N+](=O)[O-])cc2)C(=O)C1(C)C | < 3.70
Cc1nn(C)c2c1C(=O)N(C)CC(=O)N2C | < 3.70
CN(C)c1cc2ccccc2oc1=O | < 3.16
NC(=O)C1C[C@@H](O)CN1C(=O)c1ccc2c(c1)OCO2 (stereo partly specified) | < 3.70
N#CCc1n[nH]c(Cc2ccccc2)n1 | < 3.70
CC1=NS(=O)(=O)NC(C)(C)C1 | < 3.70
O=C1NC2NC(=O)NC2N1 (stereo unspecified) | < 3.32
CC(CO)(CO)N1C(=O)c2cccc3cc([N+](=O)[O-])cc(c23)C1=O | < 3.70

---

# Test system: CEM cells HIV-1 protection, formazan growth assay
# EXPERIMENTAL DETAILS: NCI AIDS Antiviral Assay
# CONDITION SUMMARY: measured here: growth of uninfected CEM cells
// reported IC50 for each item listed

COMPOUND | IC50
CCCCc1c2c(nc3c1CCCC3O)/C(=C/c1ccccc1)CCC2 (configuration not stated) | > 6.31 µM
C[n+]1c(-c2ccc(/C=N\NC(=O)c3cncc(C(=O)N/N=C/c4ccc(-c5cn6ccccc6[n+]5C)cc4)c3)cc2)cn2ccccc21 | > 7.41 µM
Cn1c(N)c(N=O)c(=O)n(C)c1=O | > 200 µM
C=C(C(=O)O)C1CC[C@@]2(C)CCC[C@@](C)(O)C2C1 (some centres not stated) | > 200 µM
C=CCP(c1ccccc1)c1ccccc1 | > 200 µM
C=C1CCC2CC1C(C(=O)c1c[nH]c3ccccc13)=NC2(C)C (configuration not stated) | > 407 µM
CCN(CC)CCOC(=O)c1cc2ccccc2[nH]1 | > 200 µM

---

# System: CEM cells HIV-1 protection, formazan growth assay
# EXPERIMENTAL DETAILS: NCI AIDS Antiviral Assay
# CONDITION SUMMARY: measured here: growth of uninfected CEM cells
Exam item: assign 1 (yes) to entries whose IC50 is below 20 µM and 0 (no) to entries at or above 20 µM. Note that a value of exactly 20 µM receives 0 (no).

COMPOUND | TESTED ON | CLASS NAME
COC(=O)c1c(C)c2c(c(C)c1O)OC(=O)c1c(C)cc(O)c(C=O)c1O2 | CEM cells HIV-1 protection, formazan growth assay | 0 (no)
C(/C=C/c1ccccc1)=Nc1ccc(SSc2ccc(N=C/C=C/c3ccccc3)cc2)cc1 | CEM cells HIV-1 protection, formazan growth assay | 1 (yes)
O=P1(c2ccccc2)c2ccccc2CCc2ccccc21 | CEM cells HIV-1 protection, formazan growth assay | 0 (no)
CCOC(=O)C(O)(NC(=O)NC(O)(C(=O)OCC)C(F)(F)F)C(F)(F)F (centres undefined) | CEM cells HIV-1 protection, formazan growth assay | 0 (no)
O=S1(=O)O[C@H]2CCCC[C@@H]2O1 | CEM cells HIV-1 protection, formazan growth assay | 0 (no)
O=CN/C=C/c1ccccc1 | CEM cells HIV-1 protection, formazan growth assay | 0 (no)
CCOC(=O)Nc1cc(NC(/C=N/NC(C)=O)C(=O)OCC)c(OC)cc1NC(C)=O (centres undefined) | CEM cells HIV-1 protection, formazan growth assay | 0 (no)
CC/C(Cl)=N\OC(=O)Nc1ccc(F)cc1F | CEM cells HIV-1 protection, formazan growth assay | 1 (yes)
COc1ccc(-c2cc(NC(=O)c3cnccn3)c(=O)oc2C)cc1 | CEM cells HIV-1 protection, formazan growth assay | 0 (no)
CC(C)CNC1=NCC(C)S1 (centres undefined) | CEM cells HIV-1 protection, formazan growth assay | 0 (no)
CC1CCC23COC(=O)C2C(O)CCC3C1(C)CC(O)c1ccoc1 (centres undefined) | CEM cells HIV-1 protection, formazan growth assay | 0 (no)
C/C(=N/NC(=O)c1ccncc1)c1ccc(NC(=O)C(=O)Nn2c(=S)[nH]c3ccccc3c2=O)cc1 | CEM cells HIV-1 protection, formazan growth assay | 0 (no)
Cc1ccc(SC[C@@]2(C(F)F)NC(=O)NC2=O)cc1 | CEM cells HIV-1 protection, formazan growth assay | 0 (no)
CCOC(=O)C[P+](c1ccc(OC)cc1)(c1ccc(OC)cc1)c1ccc(OC)cc1 | CEM cells HIV-1 protection, formazan growth assay | 0 (no)
Cc1cn([C@@H]2C[C@H](CO)[C@@H]2O)c(=O)[nH]c1=O | CEM cells HIV-1 protection, formazan growth assay | 0 (no)
O=c1[nH]c(=O)n(C2OC(CO)C(O)C2O)c2ncc(-c3ccc(-c4ccccc4)cc3)nc12 (centres undefined) | CEM cells HIV-1 protection, formazan growth assay | 0 (no)
COc1ccc(C2=NOP(c3ccccc3)(c3ccccc3)(c3ccccc3)C2)cc1 | CEM cells HIV-1 protection, formazan growth assay | 1 (yes)
COc1ccc(CN(Cc2ccc(OC)cc2)C(=O)CC2(O)C=CCC2)cc1 (centres undefined) | CEM cells HIV-1 protection, formazan growth assay | 0 (no)
COC(=O)c1cc2cc3c(c(O)c2c(=O)o1)O[C@@]1(Oc2c(O)c4c(c(O)c2[C@H]1OC1CC(OC)C(O)C(C)O1)C(=O)C=C(OC)C4=O)[C@H](O)C3 (some centres undefined) | CEM cells HIV-1 protection, formazan growth assay | 1 (yes)
C1=NCCNc2nc3ccccc3cc2C=NCCNc2nc3ccccc3cc21 | CEM cells HIV-1 protection, formazan growth assay | 0 (no)
C[CH2][Pb]([CH2]C)([CH2]C)[O]C(=O)COc1ccc(Cl)cc1Cl | CEM cells HIV-1 protection, formazan growth assay | 1 (yes)
CC1=CC(=O)C(C)(C2=NC(C)(C)CO2)c2ccccc21 (centres undefined) | CEM cells HIV-1 protection, formazan growth assay | 0 (no)
O=C(O)CCSSCCC(=O)O | CEM cells HIV-1 protection, formazan growth assay | 0 (no)
